- tgt: T1, human CD3 (human, UniProt P07766 23-207; P04234 22-171)
- T1 construct: As expressed on Jurkat cells or human T cells within the T cell receptor complex; also called hCD3
- assayNotes: FACS titration on Jurkat cells (human CD3)
metricName: pEC50
In simple prose, pEC50 is minus the logarithm base ten of a concentration in moles per litre.

So what's the measured pEC50 for this one? BSSTEAP2/CD3-004 (bispecific antibody, IgG4, V domains shown) VH 1: QVQLVESGGGVVQPGRSLRLSCVASGFTISSYGMNWVRQAPGKGLEWVAVISYDGGNKYSVDSVKGRFTISRDNSKNTLYLQMNSLRAEDSAVYYCARGRYFDLWGRGTLVTVSS VH 2: EVQLVESGGGLVQPGRSLRLSCAASGFTFADYTMHWVRQGPGTGLEWVSDIGWSGGSLGYADSVKGRFTISRDNAKNSLYLEMNNLRPEDTALYYCVKDKSGYGKFQYGLDVWGQGTTVTVSS VL: DIQMTQSPSTLSASVGDRVTITCRASQSISSWLAWYQQKPGRAPNLLISKASSLKSGVPSRFSGSGSGTEFTLTVSSLQPDDFATYYCQQYYSYSYTFGQGTKLEIK
9.16

Could you do the same for BSSTEAP2/CD3-001 (bispecific antibody, IgG4, V domains shown) VH 1: QVQLQQSGPGLVKPSQTLSLTCAISGDSVSSNRAAWNWIRQSPSRGLQWLGRTYYRSKWYNDYAVSLRSRITINPVTSKNQVALHMNSVTPEDTAVYYCARAGIVVVPGPETFYYYDHGLDVWGQGTTVTVSS VH 2: EVQLVESGGGLVQPGRSLRLSCAASGFTFDDYSMHWVRQAPGKGLEWVSGISWNSGSKGYADSVKGRFTISRDNAKNSLYLQMNSLRAEDTALYYCAKYGSGYGKFYHYGLDVWGQGTTVTVSS VL: DIQMTQSPSSLSASVGDRVTITCRASQSIRSYLNWYQQKPGKAPELLIHAASSLQSGVPSRFSGSGSGTDFTLTISSLQPEDFASYYCQQSYSAPPITFGQGTRLEIK , please?
8.14

Data credit: patent US20200376136A1
